Entries and their measured Percent Effect follow.
Target: Tyrosyl-tRNA synthetase, putative (Trypanosoma cruzi (strain CL Brener)) (UniProt Q4DSP6)
Sequence (Q4DSP6 as listed by the source): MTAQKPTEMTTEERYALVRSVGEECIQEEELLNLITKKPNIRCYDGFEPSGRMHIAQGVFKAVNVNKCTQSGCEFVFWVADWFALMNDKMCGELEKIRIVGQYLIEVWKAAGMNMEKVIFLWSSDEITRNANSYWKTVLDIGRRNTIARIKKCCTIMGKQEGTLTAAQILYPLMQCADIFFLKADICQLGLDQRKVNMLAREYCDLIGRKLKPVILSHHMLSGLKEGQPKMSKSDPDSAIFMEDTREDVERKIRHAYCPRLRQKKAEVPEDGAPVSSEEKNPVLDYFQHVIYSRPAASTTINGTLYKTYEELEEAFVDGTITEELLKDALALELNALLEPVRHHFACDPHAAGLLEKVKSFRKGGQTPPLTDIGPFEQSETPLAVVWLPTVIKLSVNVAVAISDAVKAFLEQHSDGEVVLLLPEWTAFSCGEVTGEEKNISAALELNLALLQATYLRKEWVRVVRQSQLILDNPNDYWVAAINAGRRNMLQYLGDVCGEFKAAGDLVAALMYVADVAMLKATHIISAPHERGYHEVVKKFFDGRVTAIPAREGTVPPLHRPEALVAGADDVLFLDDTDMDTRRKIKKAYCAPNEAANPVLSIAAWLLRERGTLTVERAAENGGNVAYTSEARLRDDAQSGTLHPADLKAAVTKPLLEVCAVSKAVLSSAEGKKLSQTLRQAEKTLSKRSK
Assay: Trypanosoma cruzi tyrosyl tRNA synthetase (TcYRS) SOP
Type: functional
Parameters: scale not given: direction of the effect not stated beside the values
Conditions: 30 µM
Observation Type: Percent Effect (%)

| Compound | Units Text | Reported Measurement |
| --- | --- | --- |
| Cc1cncc(C2CCCN(Cc3cccn3C)C2)n1 (stereo unspecified) | % | 12.5 |
| Cc1cc(CN(C)C(=O)c2ccnc(N(C)C)c2)no1 | % | 10.3 |
| COc1ccc(CN2C[C@@H]3COC[C@]3(CN(C)C)C2)cc1 | % | 7.69 |
| Cc1cc(OCC(=O)N2CCCC(c3noc(C)n3)C2)no1 (stereo unspecified) | % | 2.56 |
| c1cnnc(N2CCCC2CNCc2ccsc2)c1 (stereo unspecified) | % | 6.02 |
| c1cc(-c2noc(CN3CCn4c(nnc4C4CC4)C3)n2)co1 | % | 10.8 |
| CNC(=O)N1C[C@H]2C[C@H](C(=O)Nc3ccccc3)[C@@H](C1)O2 | % | 10.3 |
| NC[C@H]1CC[C@H](C(NC(=O)c2ccccn2)c2ccccn2)CC1 (stereo partly specified) | % | 22.5 |
| CCc1nccn1C1CCCN(C(=O)Cc2ccc(OC)c(F)c2)C1 (stereo unspecified) | % | 10.3 |
| CC(=O)N1[C@@H](C(=O)NCC2CC2)C[C@@H]2CN(Cc3ccco3)C[C@@H]21 | % | 7.5 |
| O=c1cc(Cn2cncn2)nc2n1CCCN(CC1CC1)C2 | % | 5.13 |
